- assayed.system: Lysine-specific demethylase 4A (Homo sapiens)
- experimental.details: qHTS Assay for Inhibitors of JMJD2A-Tudor Domain; note: nearly all actives have a fitted effect of over 50% in size; note: potency is the fitted concentration of half-maximal effect
- conditions.used: AlphaScreen JMJD2A-Tudor / H3K4me3 peptide binding; series mostly up to 114 µM
The campaign covered roughly 390,000 compounds. About 17,000 (4.4%) were called active. Roughly 8% stayed inconclusive and do not appear here. The list comes from a sample in which actives are over-represented; it also holds close analogues and randomly drawn compounds.
measured.metric: Potency

See these solved cases before continuing.
CCOC(=O)c1ccc(NC(=O)c2ncn(-c3ccccc3)n2)cc1	inactive
Cc1cc(C)c(C=NNc2nc3c([nH]2)c(=O)n(C)c(=O)n3C)c(C)c1	inactive
COc1ccc(CN2CCc3nc(Nc4ccccc4)ncc3C2)c(OC)c1OC	inactive
Cc1cc(C)c(NC(=O)CCc2c(C)nc3c(c(C)nn3C(C)(C)C)c2C)c(C)c1	inactive
Cc1ccc(NC(=O)CN2C(=O)CC(C)Sc3ccccc32)c(C)c1 (configuration not stated)	inactive

Fill blank: measured Potency of the compound CCOc1ccc(Nc2nc(Cl)nc(N3CCN(c4ccc(OC)cc4)CC3)n2)cc1 is ____.
44.7 µM (active)

Param item = CCOc1ccc(-n2c(SCC(N)=O)nnc2-c2ccco2)cc1 ; retrieve measured Potency.
20 µM (active)

Bench note: what Potency did CCOc1ccc(-c2nonc2NC(=O)c2oc3ccc(CC)cc3c2C)cc1 show?
inactive

Potency for CCC(CC)C(=O)N1CCN(c2cccc(C)c2C)CC1 ?
inactive

Would you kindly share the measured Potency for COC(=O)CCNC(=O)c1ccc2[nH]c(C)c(C)c2c1 ?
inactive

May I ask what Potency has been recorded for Cc1cccc(C)c1NC(=O)CSc1nc2c([nH]1)c(=O)n(C)c(=O)n2C ?
inactive

Please look up its Potency: COC(=O)c1ccc(NC(=O)c2cccc3c2C(=O)N(C2CCCCC2)C3)cc1
inactive

----------
- assayed.system: Lysine-specific demethylase 4A (Homo sapiens) (UniProt O75164)
- Sequence (O75164 whole entry, looked up, the tested form may be a part): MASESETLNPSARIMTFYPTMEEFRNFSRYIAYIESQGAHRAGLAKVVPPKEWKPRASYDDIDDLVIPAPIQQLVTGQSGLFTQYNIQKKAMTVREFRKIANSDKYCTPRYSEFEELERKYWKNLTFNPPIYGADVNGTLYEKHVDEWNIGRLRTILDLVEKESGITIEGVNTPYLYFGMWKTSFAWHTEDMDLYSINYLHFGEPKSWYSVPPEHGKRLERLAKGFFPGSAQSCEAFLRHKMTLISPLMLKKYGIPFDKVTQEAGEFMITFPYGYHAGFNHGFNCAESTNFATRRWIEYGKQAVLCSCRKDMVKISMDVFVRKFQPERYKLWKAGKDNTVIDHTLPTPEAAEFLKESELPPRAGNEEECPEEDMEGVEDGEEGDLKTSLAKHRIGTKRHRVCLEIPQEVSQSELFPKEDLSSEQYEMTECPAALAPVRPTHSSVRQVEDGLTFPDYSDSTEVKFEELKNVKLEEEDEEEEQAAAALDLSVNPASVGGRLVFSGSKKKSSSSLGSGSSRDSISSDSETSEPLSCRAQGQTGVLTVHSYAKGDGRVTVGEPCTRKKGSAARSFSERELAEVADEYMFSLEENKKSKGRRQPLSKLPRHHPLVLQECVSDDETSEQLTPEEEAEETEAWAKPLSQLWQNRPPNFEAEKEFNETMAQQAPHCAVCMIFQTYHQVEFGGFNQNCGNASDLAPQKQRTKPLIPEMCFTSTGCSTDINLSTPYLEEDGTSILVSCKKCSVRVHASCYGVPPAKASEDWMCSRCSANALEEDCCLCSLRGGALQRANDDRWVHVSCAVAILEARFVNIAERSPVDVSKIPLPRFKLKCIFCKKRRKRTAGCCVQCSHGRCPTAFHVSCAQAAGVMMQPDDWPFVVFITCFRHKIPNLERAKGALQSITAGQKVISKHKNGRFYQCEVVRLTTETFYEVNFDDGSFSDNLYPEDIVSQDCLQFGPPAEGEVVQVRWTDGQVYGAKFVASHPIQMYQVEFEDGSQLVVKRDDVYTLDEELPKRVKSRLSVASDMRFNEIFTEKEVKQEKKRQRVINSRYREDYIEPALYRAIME
- experimental.details: qHTS Assay for Inhibitors of JMJD2A-Tudor Domain; note: nearly all actives have a fitted effect of over 50% in size
- conditions.used: AlphaScreen JMJD2A-Tudor / H3K4me3 peptide binding; series mostly up to 114 µM
- Description: JMJD2A is a jumonji-domain-containing lysine demethylase that uses Fe(II) together with 2-OG to effect oxidative demethylation of histones. Methylation is one of many […] modification that affect epigenetic transcription. […] A quantitative high throughput AlphaScreen has been developed to identify small molecule inhibitors based on a protocol published by NCGC and SGC [4]. […] [2] Yasgar, et al. Compound Management for Quantitative High-Throughput Screening. […]
Screen size: about 390,000 compounds; about 17,000 (4.4%) were called active. Inconclusive results (about 8%) are left out. Calls come from the whole dose curve; as a rule, active = well fitted inhibition curve with a large enough effect; inconclusive = small, poorly fitted or top-dose-only effect; inactive = no such curve, though single readings can be large or run the other way. The sample holds actives, similar compounds and a random draw of the others, so the mix is not that of the screen.
Entry note: the call must match one of 1.0 for active, 0.0 for inactive

// outcome(item) with item = COc1ccc(S(=O)(=O)NCC(c2ccc(C)cc2)N2CCN(C)CC2)cc1OC (stereo unspecified)
0.0

Recorded test outcome, item O=C(CC1N=C2c3ccccc3N=C(SCc3cccc(Cl)c3)N2C1=O)NCc1ccc2c(c1)OCO2 (stereo unspecified)
0.0

Please state the recorded outcome for this compound: O=C(c1ccc2c(c1)N(Cc1ccccc1F)C(=O)c1ccccc1S2(=O)=O)N1CCOCC1
0.0

Answer briefly: the call reported for CCCn1c(NCc2ccccc2F)nc2ccccc21 in this assay.
0.0

In this assay, the call recorded for CCOC(=O)c1c(NC(=O)Cc2coc3ccc(CC)cc23)sc2c1CCC2 was what?
0.0

What is the recorded call for this compound in the test? COc1ccc(CC(=O)NCCc2sc3nc(-c4ccc(OC)cc4)nn3c2C)cc1
0.0

Call for entry CCCCN1CC(c2nc3ccccc3n2CCCCOc2ccc(C)cc2C)CC1=O (stereo unspecified) :
0.0

# lookup: test call for O=C(COc1ccccc1F)OCc1cc(=O)n2nc(C3CCCCC3)sc2n1
0.0

Short answer needed: outcome of this test for COc1cc(C2/C(=C(\O)c3ccc4c(c3)CC(C)O4)C(=O)C(=O)N2c2nnc(C)s2)cc(OC)c1OC (stereo unspecified) ?
1.0

Write down the call the test reported for this compound. Item: Cn1nnnc1Sc1ncnc2scc(-c3ccccc3[N+](=O)[O-])c12
0.0

Returns: the outcome recorded for CCCN1CCN(CCCNC(=O)c2cnn(-c3ccc(C)cc3)c2-n2cccc2)CC1 in this assay.
0.0

Per the assay record, what outcome was assigned to COc1ccc(S(=O)(=O)NCC(c2ccco2)N2CCOCC2)cc1 (stereo unspecified) ?
0.0

Name the outcome recorded for COc1cc(/C=N\NC(=O)C2C(=O)NCC2c2ccccc2)cc(OC)c1O (stereo unspecified) in the assay.
0.0

Could you please tell me the result logged for COc1cc(C(=O)NCCc2csc3nc(-c4ccccc4C)nn23)cc(OC)c1OC in this assay?
0.0

Kindly provide the recorded test outcome for the following compound: CCOc1ccc(C2/C(=C(/O)c3ccc4c(c3)CC(C)O4)C(=O)C(=O)N2CCCn2ccnc2)cc1 (stereo unspecified)
0.0

Write down the call the test reported for this compound. Item: CCCn1c(NCc2ccc(N(CC)CC)cc2)nc2ccccc21
1.0

// return assay outcome for CCOc1ccc(-n2c(C)nc3c(cnn3-c3ccc(C)cc3)c2=O)cc1
0.0

Recorded test call requested for Cn1cc(S(=O)(=O)N2CCCCCC2)cc1C(=O)N1CCN(c2ccc(F)cc2)CC1
0.0

Can you look up the reported call for COc1ccc(/C=N/NC(=O)C2CC2)c(OC)c1OC for me?
0.0

I would be grateful if you could indicate the recorded call for Cc1ccc2cccc(O)c2[n+]1[O-] .
1.0

For CCCn1c(NC(=O)C23CC4CC(CC(O)(C4)C2)C3)nc2ccccc21 , what call appears in the results of this test?
0.0

----------
- assayed.system: Lysine-specific demethylase 4A (Homo sapiens)
- experimental.details: qHTS Assay for Inhibitors of JMJD2A-Tudor Domain; note: nearly all actives have a fitted effect of over 50% in size
- conditions.used: AlphaScreen JMJD2A-Tudor / H3K4me3 peptide binding; series mostly up to 114 µM
Hit rate of the full screen: of about 390,000 compounds, about 17,000 (4.4%) were called active. Roughly 8% stayed inconclusive and do not appear here. Calls come from the whole dose curve; as a rule, active = well fitted inhibition curve with a large enough effect; inconclusive = small, poorly fitted or top-dose-only effect; inactive = no such curve, though single readings can be large or run the other way. For the sample, actives were picked, then their nearest neighbours and some compounds at random.
Parameter call: string, one of class 1 for active, class 0 for inactive

For CCc1nc(-c2cc(S(=O)(=O)N3CCN(c4ccc(OC)cc4)CC3)ccc2OC)no1 , which call appears in the assay record?
class 1

What was the test verdict on Cc1ccc(C)c2sc(NC(=O)c3ccc(S(=O)(=O)N4CCCC4)cc3)nc12 ?
class 0

Can you look up the reported call for COc1ccc(-c2cn3c(n2)sc2cc(C(=O)Nc4ccccc4F)ccc23)cc1 for me?
class 0

What outcome does the record of this test show for CCn1cc(NC(=O)Nc2ccc(OC)c(OC)c2)c(C(N)=O)n1 ?
class 0

Please state the recorded outcome for this compound: O=C(Cn1ncc(N2CCCC2)c(Br)c1=O)c1ccc(Cl)cc1
class 0

What did the test return for CC(=O)N1CCc2cc(S(=O)(=O)NC(Cc3ccccc3)C(=O)NCc3ccc(C)cc3)ccc21 (configuration not stated) ?
class 0

# lookup: test call for Cc1ccc(NC(=O)NC(=O)N(C2CCCCC2)S(=O)(=O)c2ccccc2)cc1
class 1

Hey, what did the test say about Cc1ccc(CSc2nnc(-c3cnccn3)n2C)cc1 ?
class 0

Could you check what this test reported for CC(c1ccco1)N(C(=O)Nc1ccccc1)C1CCCCC1 (configuration not stated) ?
class 0

For Cc1ccc(NC(=O)NC(C)c2c(-n3cccc3)sc(C)c2C)c(C)c1 (configuration not stated) , which call appears in the assay record?
class 0

Hello, I am checking results. What call was entered for O=C(Cn1nc(CNc2ccc(Cl)cc2)[n+]2c1CCCCC2)c1ccc(Cl)cc1 ?
class 1

Assay result, entry Oc1c(CN2CCOCC2)ccc(CN2CCOCC2)c1O — outcome?
class 1

Which outcome did this test record for the compound Cc1ccc(C(=O)N2CCc3cc(CNC(=O)c4ccc(Br)cc4)ccc32)cc1 ?
class 0

Outcome logged for O=C(CSc1nnnn1C1CCCC1)N1CCCCC1 in this assay:
class 0

# fetch the recorded call for CCc1ccc(NC(=O)c2cc(S(=O)(=O)NC3CCCCCC3)ccc2F)cc1 here
class 0

Which outcome was assigned to O=C(CC(c1cccs1)N1Cc2ccccc2C1=O)Nc1ccc(F)c(F)c1 (configuration not stated) in this test?
class 0

Tell me the recorded outcome of this test for Cc1ccc(C)c2c1cc(C)c1nnc(SCC(=O)Nc3cccc(C(=O)O)c3)n12 .
class 1

Hi, sorry to bother you, what did the test record for COc1cccc(CNCc2c(C(=O)O)n(Cc3ccc(C)cc3)c3cc(C)ccc23)c1OC ?
class 0

Dear all, I need the recorded test outcome for COc1ccc(S(=O)(=O)N2CCN(c3ccc(F)cc3)CC2)cc1-c1noc(C)n1 , thank you.
class 0

Given O=C(COc1ccccc1)OCc1cc(=O)n2nc(-c3cccs3)sc2n1 , state the outcome it received in this test.
class 0

Field: outcome | Entry: COc1ccc(C(=O)Nc2onc3c2CCCC3)cc1
class 0

Call for entry CC(C)(C)NS(=O)(=O)c1ccc(NC(=O)NC2CCCCC2)cc1 :
class 0

Please let me know the test result on file for CC(=O)c1ccc(NC(=O)Cn2c(=O)oc3ccccc32)cc1 .
class 0

Please state the recorded outcome for this compound: O=c1[nH]n(-c2ccc([N+](=O)[O-])cc2)c(=O)c2ccccc12
class 1

Look up the recorded call for O=[N+]([O-])c1ccc(COc2ccccc2CN2CCOCC2)cc1 in this test.
class 0

State the result this test recorded for COc1ccc(-c2nc3c4ccccc4n(CC(=O)Nc4ccc(C(C)=O)cc4)c(=O)n3n2)cc1 .
class 1

Can you look up the reported call for COC(=O)c1ccccc1NC(=O)Cn1c(=O)cc(C)c2c(C)nn(-c3cccc(Cl)c3C)c21 for me?
class 0

Which result was noted for this compound in the test: Oc1ccc(-n2nnnc2SCc2c(F)cccc2Cl)cc1
class 0

What call does the record list for CCc1ccc(NS(=O)(=O)c2ccc3[nH]cc(C(=O)NCCc4cccc(C)c4)c(=O)c3c2)cc1 ?
class 0

Query: recorded result category for O=C(Cn1nc(C(F)(F)F)c2c1CCCC2)Nc1ccc(Cl)cc1 in this test
class 0

Tell me the recorded outcome of this test for Cc1ccc(/C=C(\C#N)C(=O)Nc2cc(C)ccc2C)cc1 .
class 0

What outcome does the record of this test show for Cc1[nH]n(-c2ccc([N+](=O)[O-])cc2)c(=O)c1C=NCCN1CCN(C(=O)c2ccccc2F)CC1 ?
class 0

Any idea what this test logged for COc1ccc(NC(=O)Cn2c(=O)n(Cc3ccc(C(=O)NCc4ccccc4Cl)cc3)c(=O)c3ccccc32)cc1 ?
class 0

Call for entry OC(c1ccccc1)C(CN1CCOCC1)c1ccccc1 (configuration not stated) :
class 0

# lookup: test call for COc1ccccc1-n1c(SCC(=O)Nc2cccc(C(=O)O)c2)nnc1-c1ccccc1O
class 0

Field: outcome | Entry: N#Cc1c(-c2ccc(Cl)cc2)c2c([nH]c1=S)CCCC2
class 0

Record lookup: outcome of this test for CCOc1ccc(CCNC(=O)c2c(C)oc3ncn(C)c(=O)c23)cc1 ?
class 0

In this assay, the call recorded for CC1Cc2cc(S(=O)(=O)CCC(=O)NCc3ccc(Cl)cc3)ccc2N1C(=O)C1CC1 (configuration not stated) was what?
class 0

Name the outcome recorded for CCc1cnc2c(c1SCC(=O)c1ccccc1)c(=O)n(C)c(=O)n2C in the assay.
class 0

In this assay, the call recorded for Cc1ccc(-c2nn3c(=O)cc(CN4CCN(C(=O)Nc5cccc(C(F)(F)F)c5)CC4)nc3s2)cc1 was what?
class 0

Check the results log: what was the call for CSc1ccc(CCNC(=O)c2cnn(-c3ccccc3)c2-n2cccc2)cc1 ?
class 0

Each compound tested received a call. Report the one for Cc1ccc(C(=O)NCCc2nnc(SCC(=O)Nc3cccc(C(=O)O)c3)n2C)cc1 .
class 0
